Every entry's value here was drawn from PubChem BioAssay AID1845203.

- Tested on: G-401 tumor spheroids, viability % test/control
- Assay Explanation: Anticancer human tumor G-401 cell line growth inhibition;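 note: spheroids exposed to compound for 7 days; 100% = DMSO vehicle-treated spheroids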
- Condition Info: second compound 0.03 µM; first compound 0.316 µM; active compounds read low; spheroids with HUVEC and MSC

| Compound | Unit String | viability, T/C |
| --- | --- | --- |
| Cc1cc(C)c(CNC(=O)c2cc(-c3ccc(CN4CCOCC4)cc3)cc3c2cnn3C2CCCC2)c(=O)[nH]1 + CC[C@@]1(O)C(=O)OCc2c1cc1n(c2=O)Cc2cc3c(CN(C)C)c(O)ccc3nc2-1 | % | 11 |
| [2H]c1nc(C)nc([2H])c1-c1cc(NC[C@@H](C)c2cccc3c(C(=O)NC)ccnc23)ncn1 + CC[C@@]1(O)C(=O)OCc2c1cc1n(c2=O)Cc2cc3c(CN(C)C)c(O)ccc3nc2-1 | % | 14 |
| COc1cc(C)[nH]c(=O)c1CN1CCc2c(Cl)cc(C(OC)C3COC3)c(Cl)c2C1=O (stereo unspecified) + CC[C@@]1(O)C(=O)OCc2c1cc1n(c2=O)Cc2cc3c(CN(C)C)c(O)ccc3nc2-1 | % | 10.3 |
| CC1COCCN1c1cc(-c2ccnn2C)c2ccnc(-c3ccn[nH]3)c2n1 (stereo unspecified) + CC[C@@]1(O)C(=O)OCc2c1cc1n(c2=O)Cc2cc3c(CN(C)C)c(O)ccc3nc2-1 | % | 10.6 |
| CC(C)n1c(=O)n(C)c2cnc3cc(F)c(-c4ccc(OCCCN5CCCCC5)nc4)cc3c21 + CC[C@@]1(O)C(=O)OCc2c1cc1n(c2=O)Cc2cc3c(CN(C)C)c(O)ccc3nc2-1 | % | 13.9 |
| COc1ccc([C@@H](O)c2cc(-c3ncnc4cc(N5CCOCC5)ccc34)c(F)cc2Cl)nn1 + CC[C@@]1(O)C(=O)OCc2c1cc1n(c2=O)Cc2cc3c(CN(C)C)c(O)ccc3nc2-1 | % | 11.2 |
